targetOfAssay: Thymidylate synthase (Lactobacillus casei)
Sequence (P00469 whole entry): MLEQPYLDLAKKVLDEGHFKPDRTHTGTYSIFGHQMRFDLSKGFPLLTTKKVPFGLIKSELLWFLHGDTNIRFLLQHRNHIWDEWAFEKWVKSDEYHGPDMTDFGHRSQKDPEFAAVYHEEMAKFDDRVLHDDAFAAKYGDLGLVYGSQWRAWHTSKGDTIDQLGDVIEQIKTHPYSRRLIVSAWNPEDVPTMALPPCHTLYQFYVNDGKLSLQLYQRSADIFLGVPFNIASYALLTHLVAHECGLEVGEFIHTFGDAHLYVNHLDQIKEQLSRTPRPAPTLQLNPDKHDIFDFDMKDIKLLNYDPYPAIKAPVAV
experimentNotes: Inactivation of thymidylate synthetase measured asKi at 6.8 pH 30 degrees Celsius temp
Parameters: species or system Lacticaseibacillus casei
Reported Ki by item:

>  <molecule>
O=C(CBr)c1cn(C2CC(O)C(OP(=O)(O)O)O2)c(=O)[nH]c1=O (configuration not stated)

>  <Ki>
2 µM

$$$$

Prompt: # value lookup — system Thymidylate synthase (Lactobacillus casei), readout Ki, item O=c1[nH]c(=O)n([C@H]2C[C@H](O)[C@@H](COP(=O)(O)O)O2)cc1[N+](=O)[O-]
Completion: 0.5 µM

Data provenance: ChEMBL document CHEMBL1122243
